Consider the following variants; for each one, report its self-cleavage.
B1: HDV Ribozyme (parent)
chain: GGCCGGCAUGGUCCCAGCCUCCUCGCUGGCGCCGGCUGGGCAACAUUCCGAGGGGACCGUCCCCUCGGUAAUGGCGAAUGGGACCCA

variants of: B1; test: self-cleavage, relative activity (ratio to wild type); higher = more cleavage; co-transcriptional
Could you keep your reply to the number by itself?

q: State, in one line, measured self-cleavage of G35C C85G
a: 0.0923

q: State, in one line, measured self-cleavage of C62G G73C
a: 0.446

q: State, in one line, measured self-cleavage of G5C A8C
a: 0

q: State, in one line, measured self-cleavage of A51C G53A
a: 0.491

q: State, in one line, measured self-cleavage of C57G A78G
a: 0.629

q: State, in one line, measured self-cleavage of U60A C86A
a: 0.577

q: State, in one line, measured self-cleavage of G25A G54C
a: 0.138

q: State, in one line, measured self-cleavage of C36U C41A
a: 0.683

q: State, in one line, measured self-cleavage of C21G A70U
a: 0.111

q: State, in one line, measured self-cleavage of G31U A78G
a: 0.0811

q: State, in one line, measured self-cleavage of G2U C30A
a: 0.0396

q: State, in one line, measured self-cleavage of C21U G67U
a: 0.174

q: State, in one line, measured self-cleavage of C3U C14G
a: 0.739

q: State, in one line, measured self-cleavage of C33U G55C
a: 0.831

q: State, in one line, measured self-cleavage of G17A G25U
a: 0.0277

q: State, in one line, measured self-cleavage of A45G C64A
a: 0.658

q: State, in one line, measured self-cleavage of U12C U60C
a: 0.594

q: State, in one line, measured self-cleavage of C32A U47C
a: 0.0462

q: State, in one line, measured self-cleavage of G35U U47C
a: 0.189

q: State, in one line, measured self-cleavage of U12G C21U
a: 0.123

q: State, in one line, measured self-cleavage of C24G C63A
a: 0.18

q: State, in one line, measured self-cleavage of G5A G82C
a: 0

q: State, in one line, measured self-cleavage of G54U C57U
a: 0.993

q: State, in one line, measured self-cleavage of U23A A56U
a: 1.08

q: State, in one line, measured self-cleavage of U20G G55U
a: 0.332

q: State, in one line, measured self-cleavage of C30G U72A
a: 0.0536

q: State, in one line, measured self-cleavage of A8U G11U
a: 0.201

q: State, in one line, measured self-cleavage of G34C U79A
a: 0.104

q: State, in one line, measured self-cleavage of U9C G34U
a: 0.178

q: State, in one line, measured self-cleavage of G5U U72A
a: 0.128

q: State, in one line, measured self-cleavage of U46A C62G
a: 0.289

q: State, in one line, measured self-cleavage of C22A C26U
a: 0.578

q: State, in one line, measured self-cleavage of A77U A83G
a: 0.261

q: State, in one line, measured self-cleavage of G6C G50C
a: 0.554

q: State, in one line, measured self-cleavage of U23A A42C
a: 0.253

q: State, in one line, measured self-cleavage of A51U U60C
a: 0.594

q: State, in one line, measured self-cleavage of C30A U79A
a: 0.386

q: State, in one line, measured self-cleavage of G80U C85A
a: 0.288
